# Tested on: LoVo-Dox
# TEST NAME: SRB colorimetric assay of cell growth and viability, LoVo-Dox
# Assay type: cell-based, human
# TEST PARAMETERS: 48 hours exposure, SRB; read-out: LC50 LOVO-DOX
Where a SMILES comes first, the peptide text is derived from it. Bridges are numbered along the chain shown (N, C = ends). [ ]: non-standard residue; d: D form. The star is where a group is joined. d(aIle) = CC[C@H](C)[C@@H](N)C(=O)O; d(aThr) = C[C@@H](O)[C@@H](N)C(=O)O; Hexanoyl(5-Me) = CC(C)CCCC(=O)*; Orn = NCCC[C@H](N)C(=O)O; Dhb = C/C=C(\N)C(=O)O; Dha = C=C(N)C(=O)O
METRIC: CC50

| MOLECULE | TARGET ENTITY | CC50 |
| --- | --- | --- |
| C/C=C1\NC(=O)[C@H](Cc2ccccc2)NC(=O)[C@@H](C(C)C)NC(=O)[C@@H]([C@@H](C)CC)NC(=O)[C@H](NC(=O)[C@H](NC(=O)[C@H](CCCC[N+](C)(C)C)NC(=O)[C@H]2CCCN2C(=O)[C@H](NC(=O)[C@@H](NC(=O)[C@@H](NC(=O)[C@H](NC(=O)CC[C@@H](C)CC)C(C)C)[C@@H](C)O)C(C)C)C(C)C)[C@@H](C)CC)[C@@H](C)OC(=O)[C@H](C(C)C)NC1=O [Compound 93, [N^ε(Me)3-Lys^8, (4S)-MeHex^14]-KF] | LoVo-Dox | 426 nM |

// for each molecule below, give its CC50
1. CC[C@H](C)[C@@H](NC(=O)[C@H](CCCN)NC(=O)[C@H]1CCCN1C(=O)[C@H](NC(=O)[C@@H](NC(=O)[C@@H](NC(=O)[C@H](NC(=O)CCCC(C)C)C(C)C)[C@@H](C)O)C(C)C)C(C)C)C(=O)N[C@H]1C(=O)N[C@H]([C@@H](C)CC)C(=O)N[C@H](C(C)C)C(=O)N[C@@H](Cc2ccccc2)C(=O)NCC(=O)N[C@@H](C(C)C)C(=O)O[C@@H]1C [Compound 65, [Gly^2]-KF] ({Hexanoyl(5-Me)}-[dV]TV[dV][dP][Orn][d(aIle)][d(aThr)][d(aIle)][dV]FGV; ester 8-C)
2. C/C=C1\NC(=O)[C@H](Cc2ccc(F)cc2)NC(=O)[C@@H](C(C)C)NC(=O)[C@@H]([C@@H](C)CC)NC(=O)[C@H](NC(=O)[C@H](NC(=O)[C@H](CCCN)NC(=O)[C@H]2CCCN2C(=O)[C@H](NC(=O)[C@@H](NC(=O)[C@@H](NC(=O)[C@H](NC(=O)CC[C@@H](C)CC)C(C)C)[C@@H](C)O)C(C)C)C(C)C)[C@@H](C)CC)[C@@H](C)OC(=O)[C@H](C(C)C)NC1=O [Compound 74, [Phe(4-F)^3, (4S)-MeHex^14]-KF]
3. C/C=C1\NC(=O)[C@@H](Cc2ccccc2)NC(=O)[C@H](C(C)C)NC(=O)[C@H]([C@H](C)CC)NC(=O)[C@@H](NC(=O)[C@@H](NC(=O)[C@@H](CCCN)NC(=O)[C@@H]2CCCN2C(=O)[C@@H](NC(=O)[C@H](NC(=O)[C@H](NC(=O)[C@@H](NC(=O)CCCC(C)C)C(C)C)[C@H](C)O)C(C)C)C(C)C)[C@H](C)CC)[C@H](C)OC(=O)[C@@H](C(C)C)NC1=O [Compound 69]
4. C/C=C1\NC(=O)[C@H](Cc2ccccc2)N(C)C(=O)[C@@H](C(C)C)NC(=O)[C@@H]([C@@H](C)CC)NC(=O)[C@H](NC(=O)[C@H](NC(=O)[C@H](CCCN)NC(=O)[C@H]2CCCN2C(=O)[C@H](NC(=O)[C@@H](NC(=O)[C@@H](NC(=O)[C@H](NC(=O)CC[C@@H](C)CC)C(C)C)[C@@H](C)O)C(C)C)C(C)C)[C@@H](C)CC)[C@@H](C)OC(=O)[C@H](C(C)C)NC1=O [Compound 80, [NMePhe^3, (4S)-MeHex^14]-KF]
5. C=C1NC(=O)[C@H](Cc2ccccc2)NC(=O)[C@@H](C(C)C)NC(=O)[C@@H]([C@@H](C)CC)NC(=O)[C@H](NC(=O)[C@H](NC(=O)[C@H](CCCN)NC(=O)[C@H]2CCCN2C(=O)[C@H](NC(=O)[C@@H](NC(=O)[C@@H](NC(=O)[C@H](NC(=O)CCCC(C)C)C(C)C)[C@@H](C)O)C(C)C)C(C)C)[C@@H](C)CC)[C@@H](C)OC(=O)[C@H](C(C)C)NC1=O [Compound 67, [Dha^2]-KF] ({Hexanoyl(5-Me)}-[dV]TV[dV][dP][Orn][d(aIle)][d(aThr)][d(aIle)][dV]F[Dha]V; ester 8-C)
6. C/C=C1\NC(=O)[C@H](Cc2ccccc2)NC(=O)[C@@H](C(C)C)NC(=O)[C@@H]([C@@H](C)CC)NC(=O)[C@H](NC(=O)[C@H](NC(=O)[C@H](CCCN)NC(=O)[C@H]2CCCN2C(=O)[C@H](NC(=O)[C@@H](NC(=O)[C@@H](NC(=O)[C@H](NC(=O)CC[C@@H](C)CC)C(C)C)[C@@H](C)OC(=O)C(F)(F)F)C(C)C)C(C)C)[C@@H](C)CC)[C@@H](C)OC(=O)[C@H](C(C)C)NC1=O [Compound 94]
7. C/C=C1\NC(=O)[C@H](Cc2ccc(Cl)c(Cl)c2)NC(=O)[C@@H](C(C)C)NC(=O)[C@@H]([C@@H](C)CC)NC(=O)[C@H](NC(=O)[C@H](NC(=O)[C@H](CCCN)NC(=O)[C@H]2CCCN2C(=O)[C@H](NC(=O)[C@@H](NC(=O)[C@@H](NC(=O)[C@H](NC(=O)CC[C@@H](C)CC)C(C)C)[C@@H](C)O)C(C)C)C(C)C)[C@@H](C)CC)[C@@H](C)OC(=O)[C@H](C(C)C)NC1=O [Compound 70, [Phe(3,4-Cl2)^3, (4S)-MeHex^14]-KF]

A.
1: 3810 nM; 2: 624 nM; 3: ≥ 6770 nM; 4: 359 nM; 5: 2470 nM; 6: 1320 nM; 7: 612 nM

Q. Record request: CC50 value, item C/C=C1\NC(=O)[C@H](Cc2ccccc2)NC(=O)[C@@H](C(C)C)NC(=O)[C@@H]([C@@H](C)CC)NC(=O)[C@H](NC(=O)[C@H](NC(=O)[C@H](CCCN)NC(=O)[C@H]2CCCN2C(=O)[C@H](NC(=O)[C@@H](NC(=O)[C@H](CCCN)NC(=O)CCCC(C)C)C(C)C)C(C)C)[C@@H](C)CC)[C@@H](C)OC(=O)[C@H](C(C)C)NC1=O [Compound 57, [Orn^12, noD-Val^13]-KF] ({Hexanoyl(5-Me)}-[Orn]V[dV][dP][Orn][d(aIle)][d(aThr)][d(aIle)][dV]F[Dhb]V; ester 7-C)
A. ≥ 7180 nM

---

Field: CC50. Provide a value for each of the molecules that follow.
# Tested on: SK-MEL-28
# TEST NAME: SRB colorimetric assay of cell growth and viability, SK-MEL-28
# Format: cell-based, human
# TEST PARAMETERS: 48 hours exposure; read-out: LC50 MEL-28
Where a SMILES comes first, the peptide text is derived from it. Bridges are numbered along the chain shown (N, C = ends). [ ]: non-standard residue; d: D form. The star is where a group is joined. d(aIle) = CC[C@H](C)[C@@H](N)C(=O)O; d(aThr) = C[C@@H](O)[C@@H](N)C(=O)O; Hexanoyl(5-Me) = CC(C)CCCC(=O)*; Orn = NCCC[C@H](N)C(=O)O; Dhb = C/C=C(\N)C(=O)O
One number for each entry, in µM.

| MOLECULE | UNIT TEXT | NUMBER |
| --- | --- | --- |
| C/C=C1\NC(=O)[C@H](Cc2ccccc2)NC(=O)[C@@H](C(C)C)NC(=O)[C@@H]([C@@H](C)CC)NC(=O)[C@H](NC(=O)[C@H](NC(=O)[C@H](CCCN)NC(=O)[C@H]2CCCN2C(=O)[C@H](NC(=O)[C@@H](NC(=O)[C@@H](NC(=O)[C@H](NC(=O)c2ccccc2)C(C)C)[C@@H](C)O)C(C)C)C(C)C)[C@@H](C)CC)[C@@H](C)OC(=O)[C@H](C(C)C)NC1=O [Compound 20, [Bza^14]-KF] | µM | 4.23 |

As a next step, examine the molecule that follows.
Q. Record request: CC50 value, item C/C=C1\NC(=O)[C@H](Cc2ccccc2)NC(=O)[C@@H](C(C)C)NC(=O)[C@@H]([C@@H](C)CC)NC(=O)[C@H](NC(=O)[C@H](NC(=O)[C@H](CCCN)NC(=O)[C@H]2CCCN2C(=O)[C@H](NC(=O)[C@H](CCC(N)=O)NC(=O)[C@@H](NC(=O)[C@H](NC(=O)CCCC(C)C)C(C)C)[C@@H](C)O)C(C)C)[C@@H](C)CC)[C@@H](C)OC(=O)[C@H](C(C)C)NC1=O [Compound 48, [Gln^11]-KF] ({Hexanoyl(5-Me)}-[dV]TQ[dV][dP][Orn][d(aIle)][d(aThr)][d(aIle)][dV]F[Dhb]V; ester 8-C)
A. 6.64
